# experimental.target: Calcium/calmodulin-dependent protein kinase kinase 2 (Homo sapiens); further: in the data inactive means no Kd found up to 30 µM
# Sequence (Q96RR4 whole entry): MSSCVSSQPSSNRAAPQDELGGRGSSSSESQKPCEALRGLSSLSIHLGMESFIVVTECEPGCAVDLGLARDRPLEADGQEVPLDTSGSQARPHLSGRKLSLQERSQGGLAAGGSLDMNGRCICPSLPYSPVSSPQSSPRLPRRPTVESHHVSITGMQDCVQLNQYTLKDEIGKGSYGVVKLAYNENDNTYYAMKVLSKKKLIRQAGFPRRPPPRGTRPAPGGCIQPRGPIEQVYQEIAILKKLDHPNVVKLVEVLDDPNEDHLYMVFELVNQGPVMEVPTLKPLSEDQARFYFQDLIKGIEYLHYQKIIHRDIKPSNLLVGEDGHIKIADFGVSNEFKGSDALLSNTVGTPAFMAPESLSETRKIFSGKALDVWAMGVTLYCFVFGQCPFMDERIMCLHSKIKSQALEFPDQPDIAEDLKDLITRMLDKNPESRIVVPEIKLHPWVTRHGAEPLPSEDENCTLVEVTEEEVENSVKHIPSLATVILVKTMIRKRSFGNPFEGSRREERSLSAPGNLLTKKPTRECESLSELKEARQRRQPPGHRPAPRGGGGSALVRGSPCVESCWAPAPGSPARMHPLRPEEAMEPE
Active and inactive are the calls of the source.
Assign a class; possible classes are active, inactive

Previously resolved entries follow.
substance.smiles: CCc1cc2c(cc1N1CCC(N3CCOCC3)CC1)C(C)(C)c1[nH]c3cc(C#N)ccc3c1C2=O
experimental.target: Calcium/calmodulin-dependent protein kinase kinase 2 (Homo sapiens); further: in the data inactive means no Kd found up to 30 µM
label.class: active
//
substance.smiles: C=CC(=O)Nc1cccc(Nc2nc(Nc3ccc(N4CCN(C(C)=O)CC4)cc3OC)ncc2C(F)(F)F)c1
experimental.target: Calcium/calmodulin-dependent protein kinase kinase 2 (Homo sapiens); further: in the data inactive means no Kd found up to 30 µM
label.class: inactive
//
substance.smiles: C=CCn1c(=O)c2cnc(Nc3ccc(N4CCN(C)CC4)cc3)nc2n1-c1cccc(C(C)(C)O)n1
experimental.target: Calcium/calmodulin-dependent protein kinase kinase 2 (Homo sapiens); further: in the data inactive means no Kd found up to 30 µM
label.class: inactive
//
substance.smiles: S=C(NCc1ccc2c(c1)OCO2)N1CCN(c2ncnc3c2oc2ccccc23)CC1
experimental.target: Calcium/calmodulin-dependent protein kinase kinase 2 (Homo sapiens); further: in the data inactive means no Kd found up to 30 µM
label.class: inactive
//
substance.smiles: COCCN1CCN(Cc2ccc(-c3n[nH]c4c3C(=O)c3c(NC(=O)NN5CCOCC5)cccc3-4)cc2)CC1
experimental.target: Calcium/calmodulin-dependent protein kinase kinase 2 (Homo sapiens); further: in the data inactive means no Kd found up to 30 µM
label.class: inactive

Query: Test call, this molecule: Cc1c(Cn2c(C)nc3c(C(=O)O)cc(N4CCOCC4)cc32)cccc1C(F)(F)F
Reply: inactive

Query: Test call, this molecule: COc1cc2ncnc(Nc3ccc(O)cc3)c2cc1OC
Reply: inactive

Query: Test call, this molecule: O=C(NOC[C@H](O)CO)c1ccc(F)c(F)c1Nc1ccc(I)cc1F
Reply: inactive
